- Tested target: BCL6 (Homo sapiens (Human))
- Run description: Immunofluorescence high content imaging of BCL6 degradation in T47D cells
- Assay type: cell-based
- Cond: class symbols A-D, read-out: EC50 (nM)*
# key: entry, value: DC50

Suppose we examine the compound `CNC(=O)COc1cc2cc(Nc3nc(N4CCC(Cc5cn(CCOCCOCCOCC(=O)N[C@H](C(=O)N6C[C@H](O)C[C@H]6C(=O)N[C@@H](C)c6ccc(-c7scnc7C)cc6)C(C)(C)C)nn5)CC4)ncc3Cl)ccc2n(C)c1=O` ; what DC50 value has been reported?
50 to 100 nM

Need DC50, item CNC(=O)COc1cc2cc(Nc3nc(N4CCC(OCCOCCNc5cccc6c5C(=O)N(C5CCC(=O)NC5=O)C6=O)CC4)ncc3Cl)ccc2n(C)c1=O (centres unmarked)
50 to 100 nM

Reported DC50, compound CNC(=O)COc1cc2cc(Nc3nc(N4CCC(OCCOCCOCCOc5cccc(CCOc6ccc7c(c6)CN(C6CCC(=O)NC6=O)C7=O)c5)CC4)ncc3Cl)ccc2n(C)c1=O (centres unmarked) : ____
> 100 nM

Reported DC50, compound CNC(=O)COc1cc2cc(Nc3nc(N4CCC(OCCOCCOCCOCCOCCOc5ccc6c(c5)CN(C5(C)CCC(=O)NC5=O)C6=O)CC4)ncc3Cl)ccc2n(C)c1=O (centres unmarked) : ____
10 to 50 nM

What value of DC50 has been recorded for this entry: CNC(=O)COc1cc2cc(Nc3nc(N4CCC(OCCOCCOCCCOc5ccccc5CCOc5ccc6c(c5)CN(C5CCC(=O)NC5=O)C6=O)CC4)ncc3Cl)ccc2n(C)c1=O (centres unmarked)
> 100 nM
